# subjectOfTest: T1, cMet-Fc fusion protein (extracellular domain of the cMet receptor expressed as an Fc-fusion protein) (human, UniProt P08581 25-932)
# T1 construct: extracellular domain; also called soluble cMet-Fc-fusion protein; soluble cMet receptor; not shown: Fc part
# method: phage ELISA on cMet-Fc, competitor HGF 100 ng/mL
endpointName: % of binding in the absence of HGF (%)
Lab book: enter the figure in %, no units written.

Sample answers from the record:
In [3]: df
Out[3]:
                                     binder  readoutvalue
0  GSFAPCGWPSFAIDCIAEAP [545-C11 peptide-displaying phage (SEQ ID NO: 367)]            77
1  AQYDTWVFQFIHEVPGELVAMQ (also called linear isolate 94-E08) [94-E08 peptide-displaying phage (SEQ ID NO: 454)]           102

Looking for the measured % of binding in the absence of HGF of AGIWFCNNEEKSCWAYGT [471-A11 peptide-displaying phage (SEQ ID NO: 040)] , can you help?
85

Looking for the measured % of binding in the absence of HGF of ADAWMCEYFQWNCGDKGT [458-B05 peptide-displaying phage (SEQ ID NO: 046)] , can you help?
201

Looking for the measured % of binding in the absence of HGF of AQIQGIQKTEQGEFYWFNWFPA [528-F05 peptide-displaying phage (SEQ ID NO: 450)] , can you help?
84

Looking for the measured % of binding in the absence of HGF of AQGIAWQLEWSYMPQSPPSFDR [522-H03 peptide-displaying phage (SEQ ID NO: 495)] , can you help?
107

Looking for the measured % of binding in the absence of HGF of AQSPYIFPIDDSGRQIFVIQWG [76-D09 peptide-displaying phage (SEQ ID NO: 463)] , can you help?
79

Looking for the measured % of binding in the absence of HGF of AGSTDCRGHPTFECWGWGT [549-F06 peptide-displaying phage (SEQ ID NO: 086)] , can you help?
96
